Item-by-item account of melting point

INSERT INTO measurements (compound, quantity_kind, reported_result) VALUES
  ('CN(C)CCn1ccc(-c2ccc(F)cc2)c1-c1ccncc1', 'melting point', '70 to 73 °C'),
  ('CNCC[C@H](O)c1cccs1', 'melting point', '68 to 70 °C'),
  ('COc1ccc(OCCCCBr)c(C2(SC)Sc3ccccc3N(C)C2=O)c1 (centres undefined)', 'melting point', '102 to 103 °C'),
  ('COc1ccc(C(C)C)cc1-c1cc(-c2nnnn2C2CCCN(C(=O)OC(C)(C)C)C2)c(O)cc1O (centres undefined)', 'melting point', '227 to 229 °C'),
  ('CCOC(=O)C(C)(C)Oc1ccc(C(=O)Nc2ccccc2Sc2ccccc2-c2nnn[nH]2)cc1', 'melting point', '157 to 158 °C'),
  ('CC12CC(F)C3c4ccc(O)cc4CC(CCCCCBr)C3C1CCC2=O (centres undefined)', 'melting point', '178 °C'),
  ('CCC(OC(C)=O)c1nc2c(C(F)(F)F)cccc2c(O)c1C(=O)Nc1nccs1 (centres undefined)', 'melting point', '245 °C'),
  ('CC(Nc1nc(Oc2cccc3[nH]c(=O)c(N)nc23)cc(-c2ccc(C(F)(F)F)cc2)n1)c1ccc(F)cc1 (centres undefined)', 'melting point', '434 °C');

Ask: Record request: melting point value, item CCCCc1nc2cc(C(=O)O)ccc2n1Cc1ccccc1Cl
Reply: 238 to 239 °C
